Measured values drawn from ChEMBL document CHEMBL1795235 for this set.

Assay: Intestinal absorption in Wistar rat at 1 mg/mL, injected into small intestine, measured after 1 hr by UV-spectrophotometric analysis
Conditions: in situ, intestinal injection
reportedProperty: Fa at 1 h (%)

# chemSmiles, valueReported
data = [
    ("O=C(CCc1ccc(F)cc1)OC[C@H]1O[C@@H](Oc2c(-c3ccc(O)c(O)c3)oc3cc(O)cc(O)c3c2=O)[C@H](OC(=O)CCc2ccc(F)cc2)[C@@H](O)[C@H]1O", 76.6),
]

---

Test system: Escherichia coli
Assay: Antibacterial activity against Escherichia coli K-12 after 24 hrs by microdilution method
Assay type: functional
Conditions: K-12, 24 h

# compound, targetEntity, MIC
measured = [
    ("CC(=O)OC[C@H]1O[C@@H](Oc2c(-c3ccc(O)c(O)c3)oc3cc(O)cc(O)c3c2=O)[C@H](OC(C)=O)[C@@H](OC(C)=O)[C@H]1OC(C)=O", "Escherichia coli", "> 128 µg/mL"),
    ("O=C(CCc1ccc(F)cc1)OC[C@H]1O[C@@H](Oc2c(-c3ccc(O)c(O)c3)oc3cc(O)cc(O)c3c2=O)[C@H](O)[C@@H](O)[C@H]1O", "Escherichia coli", "> 128 µg/mL"),
    ("CCOc1ccc(C(=O)OC[C@H]2O[C@@H](Oc3c(-c4ccc(O)c(O)c4)oc4cc(O)cc(O)c4c3=O)[C@H](OC(=O)c3ccc(OCC)cc3)[C@@H](O)[C@H]2O)cc1", "Escherichia coli", "> 128 µg/mL"),
    ("Cc1ccc(CCC(=O)OC[C@H]2O[C@@H](Oc3c(-c4ccc(O)c(O)c4)oc4cc(O)cc(O)c4c3=O)[C@H](OC(=O)CCc3ccc(C)cc3)[C@@H](O)[C@H]2O)cc1", "Escherichia coli", "> 128 µg/mL"),
    ("Cc1ccc(CCC(=O)Oc2cc(O)c3c(=O)c(OC(=O)CCc4ccc(C)cc4)c(-c4ccc(O)c(O)c4)oc3c2)cc1", "Escherichia coli", "64 µg/mL"),
    ("O=C(CCc1ccc(O)cc1)OC[C@H]1O[C@@H](Oc2c(-c3ccc(O)c(O)c3)oc3cc(O)cc(O)c3c2=O)[C@H](OC(=O)CCc2ccc(O)cc2)[C@@H](O)[C@H]1O", "Escherichia coli", "> 128 µg/mL"),
    ("CO[C@@H]1[C@@H](OC(N)=O)[C@@H](O)[C@H](Oc2ccc3c(O)c(NC(=O)c4ccc(O)c(CC=C(C)C)c4)c(=O)oc3c2C)OC1(C)C", "Escherichia coli", "8 µg/mL"),
    ("CC1O[C@H](Oc2c(-c3ccc(O)cc3)oc3cc(O)cc(O)c3c2=O)[C@@H](OC(=O)/C=C/c2ccc(O)cc2)[C@@H](O)[C@@H]1OC(=O)/C=C/c1ccc(O)cc1 (some centres not stated)", "Escherichia coli", "> 128 µg/mL"),
    ("O=C(Cc1ccc(F)cc1)OC[C@H]1O[C@@H](Oc2c(-c3ccc(O)c(O)c3)oc3cc(O)cc(O)c3c2=O)[C@H](OC(=O)Cc2ccc(F)cc2)[C@@H](O)[C@H]1O", "Escherichia coli", "> 128 µg/mL"),
    ("CCOc1ccc(CCC(=O)OC[C@H]2O[C@@H](Oc3c(-c4ccc(O)c(O)c4)oc4cc(O)cc(O)c4c3=O)[C@H](OC(=O)CCc3ccc(OCC)cc3)[C@@H](O)[C@H]2O)cc1", "Escherichia coli", "> 128 µg/mL"),
    ("O=C(OC[C@H]1O[C@@H](Oc2c(-c3ccc(O)c(O)c3)oc3cc(O)cc(O)c3c2=O)[C@H](OC(=O)c2ccc(F)cc2)[C@@H](O)[C@H]1O)c1ccc(F)cc1", "Escherichia coli", "> 128 µg/mL"),
    ("O=c1c(O[C@@H]2O[C@H](CO)[C@H](O)[C@H](O)[C@H]2O)c(-c2ccc(O)c(O)c2)oc2cc(O)cc(O)c12 [HYPEROSIDE]", "Escherichia coli", "16 µg/mL"),
]

---

System: Staphylococcus aureus
Assay: Antibacterial activity against methicillin-resistant Staphylococcus aureus OM481 after 24 hrs by microdilution method
Type: functional
Details: OM481, 24 h
reportedProperty: MIC

# compound, reportedProperty, valueReported
rows = [
    ("O=c1c(O[C@@H]2O[C@H](CO)[C@H](O)[C@H](O)[C@H]2O)c(-c2ccc(O)c(O)c2)oc2cc(O[C@@H]3O[C@H](CO)[C@H](O)[C@H](O)[C@H]3O)cc(O)c12", "MIC", "> 128 mg/L"),
    ("O=C(CCc1ccc(O)cc1)OC[C@H]1O[C@@H](Oc2c(-c3ccc(O)c(O)c3)oc3cc(O)cc(O)c3c2=O)[C@H](OC(=O)CCc2ccc(O)cc2)[C@@H](O)[C@H]1O", "MIC", "1 mg/L"),
    ("Cc1ccc(CCC(=O)O[C@H]2[C@H](Oc3c(-c4ccc(O)c(O)c4)oc4cc(O)cc(O)c4c3=O)O[C@H](CO)[C@@H](O)[C@@H]2OC(=O)CCc2ccc(C)cc2)cc1", "MIC", "2 mg/L"),
    ("O=C(CCc1ccc(O)cc1)O[C@H]1[C@H](Oc2c(-c3ccc(O)c(O)c3)oc3cc(O)cc(O)c3c2=O)O[C@H](CO)[C@@H](O)[C@@H]1OC(=O)CCc1ccc(O)cc1", "MIC", "2 mg/L"),
    ("O=C(O[C@H]1[C@H](Oc2c(-c3ccc(O)c(O)c3)oc3cc(O)cc(O)c3c2=O)O[C@H](CO)[C@@H](O)[C@@H]1OC(=O)c1ccc(F)cc1)c1ccc(F)cc1", "MIC", "2 mg/L"),
    ("CN[C@H](CC(C)C)C(=O)N[C@H]1C(=O)N[C@@H](CC(N)=O)C(=O)N[C@H]2C(=O)N[C@H]3C(=O)N[C@H](C(=O)N[C@H](C(=O)O)c4cc(O)cc(O)c4-c4cc3ccc4O)[C@H](O)c3ccc(c(Cl)c3)Oc3cc2cc(c3O[C@@H]2O[C@H](CO)[C@@H](O)[C@H](O)[C@H]2O[C@H]2C[C@](C)(N)[C@H](O)[C@H](C)O2)Oc2ccc(cc2Cl)[C@H]1O [VANCOMYCIN]", "MIC", "0.25 mg/L"),
    ("CCCc1ccc(C(=O)OC[C@H]2O[C@@H](Oc3c(-c4ccc(O)c(O)c4)oc4cc(O)cc(O)c4c3=O)[C@H](OC(=O)c3ccc(CCC)cc3)[C@@H](O)[C@H]2O)cc1", "MIC", "4 mg/L"),
    ("Cc1ccc(CCC(=O)OC[C@H]2O[C@@H](Oc3c(-c4ccc(O)c(O)c4)oc4cc(O)cc(O)c4c3=O)[C@H](O)[C@@H](O)[C@H]2O)cc1", "MIC", "16 mg/L"),
    ("O=c1c(O)c(-c2ccc(O)c(O)c2)oc2cc(O)cc(O)c12 [QUERCETIN]", "MIC", "> 128 mg/L"),
    ("CCOc1ccc(CCC(=O)OC[C@H]2O[C@@H](Oc3c(-c4ccc(O)c(O)c4)oc4cc(O)cc(O)c4c3=O)[C@H](OC(=O)CCc3ccc(OCC)cc3)[C@@H](O)[C@H]2O)cc1", "MIC", "4 mg/L"),
    ("O=C(Cc1ccc(F)cc1)OC[C@H]1O[C@@H](Oc2c(-c3ccc(O)c(O)c3)oc3cc(O)cc(O)c3c2=O)[C@H](OC(=O)Cc2ccc(F)cc2)[C@@H](O)[C@H]1O", "MIC", "1 mg/L"),
    ("CCOc1ccc(C(=O)O[C@H]2[C@H](Oc3c(-c4ccc(O)c(O)c4)oc4cc(O)cc(O)c4c3=O)O[C@H](CO)[C@@H](O)[C@@H]2OC(=O)c2ccc(OCC)cc2)cc1", "MIC", "2 mg/L"),
    ("CO[C@@H]1[C@@H](OC(N)=O)[C@@H](O)[C@H](Oc2ccc3c(O)c(NC(=O)c4ccc(O)c(CC=C(C)C)c4)c(=O)oc3c2C)OC1(C)C [NOVOBIOCIN]", "MIC", "0.25 mg/L"),
    ("O=C(OC[C@H]1O[C@@H](Oc2c(-c3ccc(O)c(O)c3)oc3cc(O)cc(O)c3c2=O)[C@H](OC(=O)c2ccc(F)cc2)[C@@H](O)[C@H]1O)c1ccc(F)cc1", "MIC", "2 mg/L"),
    ("CCn1cc(C(=O)O)c(=O)c2cc(F)c(N3CCNCC3)cc21 [NORFLOXACIN]", "MIC", "64 mg/L"),
    ("Cc1ccc(CCC(=O)Oc2cc(O)c3c(=O)c(OC(=O)CCc4ccc(C)cc4)c(-c4ccc(O)c(O)c4)oc3c2)cc1", "MIC", "32 mg/L"),
    ("CCCc1ccc(C(=O)O[C@H]2[C@H](Oc3c(-c4ccc(O)c(O)c4)oc4cc(O)cc(O)c4c3=O)O[C@H](CO)[C@@H](O)[C@@H]2OC(=O)c2ccc(CCC)cc2)cc1", "MIC", "2 mg/L"),
    ("O=c1c(O[C@@H]2O[C@H](CO)[C@H](O)[C@H](O)[C@H]2O)c(-c2ccc(O)c(O)c2)oc2cc(O)cc(O)c12 [HYPEROSIDE]", "MIC", "> 128 mg/L"),
    ("O=C(CCc1ccc(F)cc1)OC[C@H]1O[C@@H](Oc2c(-c3ccc(O)c(O)c3)oc3cc(O)cc(O)c3c2=O)[C@H](O)[C@@H](O)[C@H]1O", "MIC", "16 mg/L"),
    ("O=C(CCCc1ccc(F)cc1)OC[C@H]1O[C@@H](Oc2c(-c3ccc(O)c(O)c3)oc3cc(O)cc(O)c3c2=O)[C@H](OC(=O)CCCc2ccc(F)cc2)[C@@H](O)[C@H]1O", "MIC", "2 mg/L"),
    ("O=C(CCc1ccc(F)cc1)Oc1cc(O)c2c(=O)c(OC(=O)CCc3ccc(F)cc3)c(-c3ccc(O)c(O)c3)oc2c1", "MIC", "16 mg/L"),
    ("Cc1ccc(CC(=O)OC[C@H]2O[C@@H](Oc3c(-c4ccc(O)c(O)c4)oc4cc(O)cc(O)c4c3=O)[C@H](OC(=O)Cc3ccc(C)cc3)[C@@H](O)[C@H]2O)cc1", "MIC", "2 mg/L"),
]
